- assay.method.text: RAM pathway blockade in budding yeast – dse1pr::URA3 reporter, 5-FOA selection, pilot screen (AID 869);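 also: RAM network block rescues cells from 5-FOA so hits raise OD615 growth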
- measurement.context: S. cerevisiae dse1pr::URA3 5-FOA growth, OD615, 2 d, at 10 µM, active compounds read high
Rule: inhibition of 1% or more gives Y; anything lower gives N.

Prompt: Test whether the compound c1ccc(C2NCc3ccccc3-n3cccc32)cc1 (configuration not stated) records inhibition of 1% or higher.
Response: Y

Prompt: Test whether the compound COc1ccccc1/C=C1/C(=N/O)C2CCN1CC2 records inhibition of 1% or higher.
Response: N

Prompt: Test whether the compound O=C(O)C1CSC(c2cccnc2)N1 (configuration not stated) records inhibition of 1% or higher.
Response: Y

Prompt: Test whether the compound Clc1cccc(CN2CCCCC2c2cccnc2)c1 (configuration not stated) records inhibition of 1% or higher.
Response: Y

Prompt: Test whether the compound CC12CN3CC(C)(CN(C1)C3c1ccco1)C2=O (configuration not stated) records inhibition of 1% or higher.
Response: Y

Prompt: Test whether the compound Cc1cccnc1-n1c(-c2ccco2)nc2ccccc2c1=O records inhibition of 1% or higher.
Response: N

Prompt: Test whether the compound O=c1cccc2n1CC1CC2CN(C(c2cccc(F)c2)c2sc3ncnn3c2O)C1 (configuration not stated) records inhibition of 1% or higher.
Response: Y
